# targetSystem: UniProt:P08183
# Sequence (P08183 whole entry): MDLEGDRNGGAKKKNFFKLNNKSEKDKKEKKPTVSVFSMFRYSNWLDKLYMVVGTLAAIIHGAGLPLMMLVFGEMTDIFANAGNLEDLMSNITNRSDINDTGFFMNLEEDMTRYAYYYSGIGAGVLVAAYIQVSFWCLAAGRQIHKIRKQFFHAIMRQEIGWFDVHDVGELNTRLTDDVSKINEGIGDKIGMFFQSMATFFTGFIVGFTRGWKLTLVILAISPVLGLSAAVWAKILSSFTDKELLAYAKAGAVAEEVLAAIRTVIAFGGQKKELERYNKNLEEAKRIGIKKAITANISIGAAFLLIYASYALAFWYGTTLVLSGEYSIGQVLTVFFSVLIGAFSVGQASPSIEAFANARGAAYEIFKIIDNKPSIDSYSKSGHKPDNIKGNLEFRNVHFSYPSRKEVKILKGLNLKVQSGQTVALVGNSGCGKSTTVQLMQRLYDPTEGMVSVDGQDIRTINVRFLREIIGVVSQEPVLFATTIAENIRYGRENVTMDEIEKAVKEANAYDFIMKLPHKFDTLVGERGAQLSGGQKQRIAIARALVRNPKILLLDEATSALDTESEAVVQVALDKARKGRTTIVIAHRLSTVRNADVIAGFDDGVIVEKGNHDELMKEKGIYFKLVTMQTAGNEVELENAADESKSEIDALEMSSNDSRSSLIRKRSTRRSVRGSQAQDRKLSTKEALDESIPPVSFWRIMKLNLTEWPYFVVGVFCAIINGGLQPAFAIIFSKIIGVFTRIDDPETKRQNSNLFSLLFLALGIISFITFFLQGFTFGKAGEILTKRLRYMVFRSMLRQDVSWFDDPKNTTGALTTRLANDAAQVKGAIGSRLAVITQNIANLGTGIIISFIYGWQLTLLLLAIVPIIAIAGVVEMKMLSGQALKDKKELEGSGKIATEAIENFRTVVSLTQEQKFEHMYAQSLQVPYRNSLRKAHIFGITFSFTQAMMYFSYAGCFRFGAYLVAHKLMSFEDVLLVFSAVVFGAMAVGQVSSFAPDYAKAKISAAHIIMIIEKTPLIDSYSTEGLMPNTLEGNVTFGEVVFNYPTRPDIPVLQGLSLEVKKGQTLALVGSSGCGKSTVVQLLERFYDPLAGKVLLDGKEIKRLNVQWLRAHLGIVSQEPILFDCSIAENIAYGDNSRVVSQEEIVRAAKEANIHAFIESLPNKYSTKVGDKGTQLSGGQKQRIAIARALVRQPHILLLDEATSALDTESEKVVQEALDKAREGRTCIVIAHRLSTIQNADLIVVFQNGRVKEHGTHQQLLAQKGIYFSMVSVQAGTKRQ
# runDescription: Inhibition of P-gp in human Caco2 cells assessed as decrease in Rho123 efflux by measuring decrease in ratio between fluorescence intensity of Zos-inhibited Rho123 accumulation and fluorescence intensity of non-inhibited Rho123 accumulation at 10 uM using Rho123 as substrate preincubated for 30 mins in presence of 5 uM P-gp inhibitor, Zos followed by incubation with Rhodamine 123 for 90 mins by fluorescence spectroscopy analysis
# Type: cell-based
# conditionNotes: 1.5 h
metricName: inhibition (INH)

**Query** Write down the reported inhibition (INH) of `N#C/C(=C\C=C\c1ccc2c(c1)OCO2)C(=O)OCCc1ccccc1` , test system: UniProt:P08183.
**Result** Active

**Query** And the next one, `O=C(/C=C/C=C/c1ccc2c(c1)OCO2)OCc1ccccc1` ?
**Result** Not Active

**Query** And the next one, `N#C/C(=C\C=C\c1ccc2c(c1)OCO2)C(=O)OCc1ccccc1` ?
**Result** Active

**Query** And the next one, `O=C(/C=C/C=C/c1ccc2c(c1)OCO2)N1CCCCC1` ?
**Result** Not Active

----------
# runDescription: Chromatographic hydrophobicity index of compound at 250 uM at pH 7.4 by HPLC analysis
# Assay type: ADME
# conditionNotes: pH 7.4, 250 µM
Lab note: cut-off is 90. Strictly less in CHI is T. Exactly 90 or more is F.

**Query** Lab log: compare recorded CHI with 90; is it strictly lower for `O=C(/C=C/C=C/c1ccc2c(c1)OCO2)OCc1ccccc1` ?
**Result** F

---
**Query** Lab log: compare recorded CHI with 90; is it strictly lower for CCC(=O)c1ccccc1 [PROPIOPHENONE] ?
**Result** T

**Query** And the next one, Cn1c(=O)c2c(ncn2C)n(C)c1=O [CAFFEINE] ?
**Result** T

**Query** And the next one, CCCCC(=O)c1ccccc1 [VALEROPHENONE] ?
**Result** F

**Query** And the next one, CC(=O)Nc1ccc(O)cc1 [ACETAMINOPHEN] ?
**Result** T

**Query** And the next one, `N#C/C(=C\C=C\c1ccc2c(c1)OCO2)C(=O)OCc1ccccc1` ?
**Result** F

----------
# runDescription: Cytotoxicity against human SH-SY5Y cells assessed as lysosomal activity by measuring neutral red uptake at 10 to 50 uM incubated for 24 hrs followed by incubation with neutral red solution for 2 hrs by microplate reader analysis (reference value: >85%)
# Assay type: cell-based
# conditionNotes: SH-SY5Y cells, read-out: Activity
Each entry below carries its recorded viability at 24 h.

**Query** # query: viability at 24 h of entry `N#C/C(=C\C=C\c1ccc2c(c1)OCO2)C(=O)N1CCCCC1`
**Result** > 85%

---
**Query** # query: viability at 24 h of entry `N#C/C(=C\C=C\c1ccc2c(c1)OCO2)C(=O)OCc1ccccc1`
**Result** > 85%

**Query** And the next one, `N#C/C(=C\C=C\c1ccc2c(c1)OCO2)C(=O)OCCc1ccccc1` ?
**Result** > 85%

**Query** And the next one, `O=C(/C=C/C=C/c1ccc2c(c1)OCO2)OCc1ccccc1` ?
**Result** > 85%

----------
# runDescription: Cytotoxicity against human SH-SY5Y cells assessed as cellular metabolic activity by measuring resazurin reduction at 50 uM incubated for 24 hrs followed by incubation with resazurin for 2 hrs by fluorescence based assay (reference value: >85 %)
# Format: ADME, cell-based
# conditionNotes: read-out: Activity
metricName: viability at 24 h, 50 µM
Note: a bare number is incomplete; add the unit.

**Query** # query: viability at 24 h, 50 µM of entry `O=C(/C=C/C=C/c1ccc2c(c1)OCO2)Oc1ccccc1`
**Result** 79.7%
